# assayNotes: Half life in mouse at 30 mg/kg, po
# Type: ADME, organism-based
# Parameters: dose 30 mg/kg, route oral
# measurementContext: in vivo
experimentalReadout: half-life (h)

INSERT INTO results (cpdsmiles, valuereported) VALUES
  ('c1ccc(-c2ccc(Cn3cncc3CNc3ccc(-c4nc5ccccc5s4)c(-c4ccccc4)c3)cc2)cc1', 4);

---

Measured EC50 accompanies every entry in the list below.
# assayNotes: Toxicity against mouse 3T3 cells by resazurin assay
# Type: cell-based
# measurementContext: NIH3T3 cells
experimentalReadout: EC50

INSERT INTO measurements (cpdsmiles, valuereported) VALUES
  ('N#Cc1ccc(NCc2cncn2Cc2ccc(-c3ccccc3)cc2)cc1-c1ccccc1', '> 1 µM'),
  ('O=[N+]([O-])c1ccc(Cn2cncc2CNc2cccc(-c3ccccc3)c2)cc1', '10 µM'),
  ('COC(=O)c1ccc(NCc2cncn2Cc2cccc(C(C)(C)C)c2)cc1-c1ccccc1', '> 1 µM'),
  ('COC(=O)c1ccc(NCc2cncn2Cc2ccccc2)cc1-c1ccccc1', '> 1 µM'),
  ('O=C(c1ccc(NCc2cncn2Cc2ccc(-c3ccccc3)cc2)cc1-c1ccccc1)N1CCCCC1', '> 1 µM'),
  ('COC(=O)c1ccc(NCc2cncn2Cc2cccc(C#N)c2)cc1-c1ccccc1', '> 10 µM'),
  ('c1ccc(-c2ccc(Cn3cncc3CNc3ccc(-c4onc5ccccc45)c(-c4ccccc4)c3)cc2)cc1', '> 10 µM'),
  ('CCC(=O)c1ccc(NCc2cncn2Cc2ccc(-c3ccccc3)cc2)cc1-c1ccccc1', '> 10 µM'),
  ('CCCC(=O)c1ccc(NCc2cncn2Cc2ccc(-c3ccccc3)cc2)cc1-c1ccccc1', '> 10 µM');

---

# assayNotes: Toxicity against mouse 3T3 cells by resazurin assay
# Assay type: cell-based
# measurementContext: NIH3T3 cells
pEC50: −log10 of the molar value.
Measured pEC50 accompanies every entry in the list below.
experimentalReadout: pEC50

INSERT INTO measurements (cpdsmiles, experimentalreadout, valuereported) VALUES
  ('COC(=O)c1ccc(NCc2cncn2Cc2ccc(N)cc2)cc1-c1ccccc1', 'pEC50', '< 5.00'),
  ('Nc1cc(-c2ccccc2)ccc1Cn1cncc1CNc1ccc(Cl)c(-c2ccccc2)c1', 'pEC50', '< 6.00'),
  ('Cc1ccccc1-c1ccc(Cn2cncc2CNc2ccc(-c3nc4ccccc4s3)c(-c3ccccc3)c2)cc1', 'pEC50', '< 6.00'),
  ('COC(=O)c1ccc(NCc2cncn2Cc2ccccc2C)cc1-c1ccccc1', 'pEC50', 5.00),
  ('c1ccc(Cn2cncc2CNc2cccc(-c3ccccc3)c2)cc1', 'pEC50', '< 6.12');

---

Measured EC50 accompanies every entry in the list below.
# assayNotes: Toxicity against mouse 3T3 cells by resazurin assay
# Assay type: cell-based
# measurementContext: NIH3T3 cells
experimentalReadout: EC50

INSERT INTO results (cpdsmiles, valuereported) VALUES
  ('COC(=O)c1ccc(NCc2cncn2Cc2ccc([N+](=O)[O-])cc2)cc1-c1ccccc1', '> 10000 nM'),
  ('CC(C)c1ccc(Cn2cncc2CNc2ccc(-c3nc4ccccc4s3)c(-c3ccccc3)c2)cc1', '> 1000 nM'),
  ('c1ccc(-c2ccc(Cn3cncc3CNc3ccc(-c4nc5ccccc5o4)c(-c4ccccc4)c3)cc2)cc1', '> 10000 nM'),
  ('CCc1ccc(Cn2cncc2CNc2ccc(-c3nc4ccccc4s3)c(-c3ccccc3)c2)cc1', '> 1000 nM'),
  ('COc1ccc(NCc2cncn2Cc2ccc(-c3ccccc3)cc2)cc1-c1ccccc1', '> 1000 nM');

---

Measured Tmax accompanies every entry in the list below.
# assayNotes: Tmax in Trypanosoma cruzi infected BALB/c mouse model of acute Chagas disease at 50 mg/kg, po administered as single dose
# Type: ADME, organism-based
# Set-up: dose 50 mg/kg, route oral
# measurementContext: in vivo
experimentalReadout: Tmax (h)

INSERT INTO assay_data (cpdsmiles, unitdescriptor, valuereported) VALUES
  ('Nc1cc(-c2ccccc2)ccc1Cn1cncc1CNc1ccc(-c2nc3ccccc3s2)c(-c2ccccc2)c1', 'h', 1.7),
  ('Nc1cc(-c2ccccc2)ccc1Cn1cncc1CNc1ccc(Cl)c(-c2ccccc2)c1', 'h', 0.8);

---

# assayNotes: Cmax in Trypanosoma cruzi infected BALB/c mouse model of acute Chagas disease at 50 mg/kg, po administered as single dose
# Assay type: ADME, organism-based
# Design: dose 50 mg/kg, route oral
# measurementContext: in vivo
experimentalReadout: Cmax (µg/mL)

INSERT INTO assay_data (cpdsmiles, valuereported) VALUES
  ('Nc1cc(-c2ccccc2)ccc1Cn1cncc1CNc1ccc(Cl)c(-c2ccccc2)c1', 2.4),
  ('Nc1cc(-c2ccccc2)ccc1Cn1cncc1CNc1ccc(-c2nc3ccccc3s2)c(-c2ccccc2)c1', 7.2);

---

# assayNotes: Terminal half life in rat
# Assay type: ADME, organism-based
# measurementContext: in vivo, read-out: beta t1/2 (converted)
experimentalReadout: half-life (min)

INSERT INTO results (cpdsmiles, experimentalreadout, valuereported) VALUES
  ('CC[C@@H]([C@H](C)O)n1ncn(-c2ccc(N3CCN(c4ccc(OC[C@@H]5CO[C@@](Cn6cncn6)(c6ccc(F)cc6F)C5)cc4)CC3)cc2)c1=O', 'half-life', 420);

---

# assayNotes: AUC (0 to 5 hrs) in Trypanosoma cruzi infected BALB/c mouse model of acute Chagas disease at 50 mg/kg, po administered as single dose
# Format: ADME, organism-based
# Design: dose 50 mg/kg, route oral
# measurementContext: in vivo
experimentalReadout: AUC(0-t) at 4 h (ng·h/mL)

INSERT INTO results (cpdsmiles, experimentalreadout, unitdescriptor, valuereported) VALUES
  ('Nc1cc(-c2ccccc2)ccc1Cn1cncc1CNc1ccc(-c2nc3ccccc3s2)c(-c2ccccc2)c1', 'AUC(0-t) at 4 h', 'ng·h/mL', 28700),
  ('Nc1cc(-c2ccccc2)ccc1Cn1cncc1CNc1ccc(Cl)c(-c2ccccc2)c1', 'AUC(0-t) at 4 h', 'ng·h/mL', 6300);

---

# assayedTarget: Sterol 14-alpha demethylase (Trypanosoma cruzi (strain CL Brener), UniProt Q7Z1V1)
# Sequence (Q7Z1V1 whole entry): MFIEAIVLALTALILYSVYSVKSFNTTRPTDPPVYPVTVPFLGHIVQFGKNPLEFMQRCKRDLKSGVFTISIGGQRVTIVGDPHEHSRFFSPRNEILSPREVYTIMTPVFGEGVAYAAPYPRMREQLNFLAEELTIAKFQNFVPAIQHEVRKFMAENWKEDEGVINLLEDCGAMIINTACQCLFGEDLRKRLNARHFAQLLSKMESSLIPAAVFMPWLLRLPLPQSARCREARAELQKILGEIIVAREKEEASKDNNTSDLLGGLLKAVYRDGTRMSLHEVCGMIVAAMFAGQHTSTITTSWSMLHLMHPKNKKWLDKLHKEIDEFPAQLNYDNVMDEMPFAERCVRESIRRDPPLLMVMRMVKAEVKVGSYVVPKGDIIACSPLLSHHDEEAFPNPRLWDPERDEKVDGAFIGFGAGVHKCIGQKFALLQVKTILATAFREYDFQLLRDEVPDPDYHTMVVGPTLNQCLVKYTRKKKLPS
# assayNotes: Binding affinity to Trypanosoma cruzi lanosterol 14-alpha-demethylase expressed in Escherichia coli assessed as equilibrium dissociation constant for enzyme-inhibitor complex by difference spectroscopy
pKd: −log10 of the molar value.
experimentalReadout: pKd

INSERT INTO assay_data (cpdsmiles, valuereported) VALUES
  ('Nc1cc(-c2ccccc2)ccc1Cn1cncc1CNc1ccc(Cl)c(-c2ccccc2)c1', '> 5.66'),
  ('Nc1cc(-c2ccccc2)ccc1Cn1cncc1CNc1ccc(-c2nc3ccccc3s2)c(-c2ccccc2)c1', '> 5.66');

---

# assayNotes: Terminal half life in mouse
# Type: ADME, organism-based
# measurementContext: in vivo, read-out: beta t1/2 (converted)
experimentalReadout: half-life (h)

INSERT INTO measurements (cpdsmiles, valuereported) VALUES
  ('CC[C@@H]([C@H](C)O)n1ncn(-c2ccc(N3CCN(c4ccc(OC[C@@H]5CO[C@@](Cn6cncn6)(c6ccc(F)cc6F)C5)cc4)CC3)cc2)c1=O', 7);

---

# assayNotes: Toxicity against mouse 3T3 cells by resazurin assay
# Assay type: cell-based
# measurementContext: NIH3T3 cells
pEC50: −log10 of the molar value.
experimentalReadout: pEC50

INSERT INTO measurements (cpdsmiles, experimentalreadout, valuereported) VALUES
  ('COC(=O)c1ccc(NCc2cncn2Cc2cccc(Br)c2)cc1-c1ccccc1', 'pEC50', '< 5.00'),
  ('CN(C)c1ccc(NCc2cncn2Cc2ccc(-c3ccccc3)cc2)cc1-c1ccccc1', 'pEC50', '< 6.00'),
  ('Cc1cccc(-c2cc(NCc3cncn3Cc3ccc(-c4ccccc4)cc3)ccc2-c2nc3ccccc3s2)c1C', 'pEC50', '< 6.00'),
  ('O=C(OC1CCCCC1)c1ccc(NCc2cncn2Cc2ccc(-c3ccccc3)cc2)cc1-c1ccccc1', 'pEC50', '< 5.00'),
  ('c1ccc(-c2ccc(Cn3cncc3CNc3ccc(N4CCCC4)c(-c4ccccc4)c3)cc2)cc1', 'pEC50', '< 6.00'),
  ('c1ccc(-c2ccc(Cn3cncc3CNc3ccc(-c4noc5ccccc45)c(-c4ccccc4)c3)cc2)cc1', 'pEC50', '< 5.00'),
  ('CC(C)c1cccc(NCc2cncn2Cc2ccccc2)c1', 'pEC50', '< 6.00'),
  ('COC(=O)c1ccc(NCc2cncn2Cc2ccc(Cl)cc2)cc1-c1ccccc1', 'pEC50', 4.60),
  ('Cc1cccc(-c2cccc(NCc3cncn3Cc3ccccc3)c2)c1', 'pEC50', '< 6.00');

---

# assayNotes: Plasma concentration in mouse at 30 mg/kg, po after 1 hr
# Type: ADME, organism-based
# Parameters: dose 30 mg/kg, route oral
experimentalReadout: concentration at 1 h (µM)

INSERT INTO results (cpdsmiles, valuereported) VALUES
  ('c1ccc(-c2ccc(Cn3cncc3CNc3ccc(-c4nc5ccccc5s4)c(-c4ccccc4)c3)cc2)cc1', 16);
